- experimental-system: T1, recombinant protein PD-L1-His (human, UniProt Q9NZQ7 19-238)
- T1 construct: also called PD-L1-his fusion protein; human PDL1-his protein
- T1 sequence (Q9NZQ7 19-238 limits assumed): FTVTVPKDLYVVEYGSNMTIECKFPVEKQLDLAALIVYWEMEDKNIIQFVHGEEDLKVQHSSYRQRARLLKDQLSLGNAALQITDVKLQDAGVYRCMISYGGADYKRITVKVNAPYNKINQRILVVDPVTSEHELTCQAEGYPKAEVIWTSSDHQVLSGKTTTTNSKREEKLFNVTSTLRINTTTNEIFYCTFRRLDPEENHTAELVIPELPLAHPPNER
- method: competitive ELISA, PDL1-his coated, competitor PD1-Fc 50 µg/mL
quantity-name: IC50 (µg/mL)

- binder: "PDL1-1v11 (VHH, Humanized PDL1-1, His-tagged) VHH: QVQLQESGGGLVKPGGSLRLSCAASGFTVSNSAVSWARQAPGKGLEWVSLIDSNRNTVYAQSVRGRFTISRDNAKNSVYLQMNSLRAEDTAVYYCAKGIWGSTLWGQGTTVTVSS"
  value-units: "µg/mL"
  IC50: 31.1
- binder: "PDL1-1v8 (VHH, Humanized PDL1-1, His-tagged) VHH: EVQLLESGGGLVQPGGSLRLSCAASGFTVSNSAVSWARQAPGKGLEWVSLIDSNRNTVYAQSVRGRFTISRDNSKNTVYLQMNSLRAEDTAVYYCAKGIWGSTLTGQGTTVTVSS"
  value-units: "µg/mL"
  IC50: 5.58

1 = PDL1-1v18 (VHH, Humanized PDL1-1, His-tagged) VHH: QVQLVESGGGLVKPGGSLRLSCAASGFTVSNSAVSWARQAPGKGLEWVSLIDSNRNTVYAQSVRGRFTISRDNAKNSVYLQMNSLRAEDTAVYYCAKGIWGSTLTGQGTTVTVSS
2 = PDL1-1v14 (VHH, Humanized PDL1-1, His-tagged) VHH: QVQLVESGGGLVKPGGSLRLSCAASGFTVSNSAVSWARQAPGKGLEWVSLIDSNRNTVYAQSVRGRFTISRDNVKNSVYLQMNSLRAEDTAVYYCAKGIWGSTLWGQGTTVTVSS
Could you tell me which of 1 and 2 has the lower IC50 reading? Bench note: the answer is the label of the chosen record. 1
(1: 5.22 µg/mL, 2: 37.1 µg/mL)
